# System: UACC-62 melanoma
# experiment-description: NCI-60 one-dose screen, 48 h (100 = growth as untreated, 0 = no growth, -100 = all killed)
# experimental-context: 10 µM
The panel holds about 83,000 compounds, 20% with a hit somewhere; the sample as a whole holds those more often.
measure-name: growth (%)

sample_smiles=O=C1CC[C@@H]2CCCC[C@@H]2C1 uom=% obs_value=94.6
sample_smiles=c1ccc(CSc2nnc3c4c5c(sc4nc(-c4cccnc4)n23)CCCCCC5)cc1 uom=% obs_value=34.9
sample_smiles=COc1ccc(-c2cc(-c3ccc(N(C)C)cc3)c(C#N)c(N3CCCC3)n2)cc1 uom=% obs_value=102
sample_smiles=CCCCCCCNc1nc(C=O)ncc1-c1ccc(C(F)(F)F)cc1 uom=% obs_value=116
sample_smiles=Cc1ccc(NC(=O)Nc2c(Cl)cccc2Cl)cn1 uom=% obs_value=78.7
sample_smiles=CN(C)CCN=c1nc2c(c(N)n1-c1ccccc1)c(=S)n(-c1ccccc1)c(=S)n2-c1ccccc1 uom=% obs_value=-90.3
sample_smiles=CC(=O)c1cc(Br)ccc1O uom=% obs_value=104
sample_smiles=CN(C)N=Nc1nn(C(=O)Nc2ccc(Cc3ccccc3)cc2)c2ccccc12 uom=% obs_value=-8.25
sample_smiles=COc1ccc(Oc2nc(NC3CCCC3)nc(Sc3ccc(OC)cc3)n2)cc1 uom=% obs_value=71.1
sample_smiles=Clc1nc(Cl)c2c(ncn2C/C=C\Cn2cnc3c(Cl)nc(Cl)nc32)n1 uom=% obs_value=-79
sample_smiles=CN1CC[C@@H](c2c(O)cc(O)c3c(=O)cc(-c4ccccc4Cl)oc23)[C@@H](O)C1 uom=% obs_value=-48.8
